src = patent EP4703362A1

protocol: in-vivo pharmacokinetic study on SD rats, intravenous and intranasal administration
experimentalSetup: rat, plasma, IN@2 mg/kg, read-out: Half-life period t1/2 (converted)
reportedMetric: half-life
Note to self: number, then unit, no commentary.

For record Cc1cc(C[C@@H](NC(=O)N2CCC(c3cc4c([nH]c3=O)SCCC4)CC2)C(=O)N2CCN(C3CCN(C)CC3)CC2)cc2cn[nH]c12 [Example 6] the listed half-life is 228 min

----------
protocol: plasma protein binding rate test, equilibrium dialysis (monkey)
Format: in vitro ADME, cynomolgus monkey
experimentalSetup: 1 µM, 6 hours, 37°C
As shown below, each of these compounds has a reported fb (%) value.
Reply with just the number (in %).

// worked examples, fb (%) included
compound: Cc1cc(C[C@@H](NC(=O)N2CCC(c3cc4c([nH]c3=O)SCC4)CC2)C(=O)N2CCN(C3CCN(C)CC3)CC2)cc2cn[nH]c12
unit: %
fb (%): 47.7
--
compound: Cc1cc(C[C@@H](NC(=O)N2CCC(c3cc4ccccc4[nH]c3=O)CC2)C(=O)N2CCN(C3CCN(C)CC3)CC2)cc2cn[nH]c12 [Zavegepant, zavegepant, reference compound]
unit: %
fb (%): 78.5
--
compound: [2H]C([2H])([2H])N1CCC(N2CCN(C(=O)[C@@H](Cc3cc(C)c4[nH]ncc4c3)NC(=O)N3CCC(c4cc5c([nH]c4=O)SCC5)CC3)CC2)CC1
unit: %
fb (%): 56.1

// switching to the query compound
Lookup result for Cc1cc(C[C@@H](NC(=O)N2CCC(c3cc4c([nH]c3=O)SCCC4)CC2)C(=O)N2CCN(C3CCN(C)CC3)CC2)cc2cn[nH]c12 ; measured fb (%): 61.3
